- assay_summary: inhibition of 3D7 malaria parasite growth – strain 3D7 (AID 2306);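 also: 0% = DMSO wells and 100% = chloroquine plus artemisinin control wells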
- condition: P. falciparum 3D7 erythrocytic growth, LDH absorbance, 72 h; at 2 µM; stronger effect = higher value
readout_name: growth inhibition (%)
Entry rule: numbers only, all in %.

# molecule, growth inhibition, %
measured = [
    ("N#Cc1ccc2c(c1)CCN(CCC1CCC(NC(=O)c3cc4ccc(Cl)cc4[nH]3)CC1)C2 (stereo not given)", 103),
]

Q: Item Cn1nc(C(F)(F)F)cc1-c1ccc(C(=O)Nc2ccc3c(c2)CNCC3(C)C)s1 has what recorded growth inhibition?
A: 88

Q: May I ask what growth inhibition has been recorded for Clc1ccc(CCNCCCCCCNCCc2ccc3c(c2)OCO3)cc1 ?
A: 91

Q: Which growth inhibition value is on record for CC(C)CCN1CCCN(Cc2ccc(C(=O)NCc3ccc(Cl)cc3)cc2)CC1 ?
A: 84

Q: May I ask what growth inhibition has been recorded for c1cncc(-c2cccc(CNc3nccc(Nc4ccc(OCCN5CCOCC5)cc4)n3)c2)c1 ?
A: 93

###

- experimental_system: L-lactate dehydrogenase (Plasmodium falciparum (isolate CDC / Honduras)) (UniProt Q27743)
- Sequence (Q27743 whole entry, looked up): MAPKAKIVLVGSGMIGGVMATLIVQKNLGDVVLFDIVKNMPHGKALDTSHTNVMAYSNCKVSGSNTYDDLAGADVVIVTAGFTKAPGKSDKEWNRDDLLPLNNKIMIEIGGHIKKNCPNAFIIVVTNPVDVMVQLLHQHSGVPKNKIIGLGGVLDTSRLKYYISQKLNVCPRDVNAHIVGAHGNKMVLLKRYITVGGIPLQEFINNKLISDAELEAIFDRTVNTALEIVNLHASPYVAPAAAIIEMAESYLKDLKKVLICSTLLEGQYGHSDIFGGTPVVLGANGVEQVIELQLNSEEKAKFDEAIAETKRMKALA
- assay_summary: PfLDH activity inhibition – cell lysate, 3D7 strain, counter-screen for P. falciparum growth inhibition project (AID 2304);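 also: 0% = vehicle and 100% = reference inhibitor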
- condition: P. falciparum 3D7 crude extract, LDH APAD/NBT absorbance; at 2 µM; stronger effect = higher value
Form field: inhibition (one value per entry).
API: value field is a number in %; no unit string.

# compound, experimental_system, readout_unit, inhibition
rows = [
    ("O=C(Nc1ccc(-c2nc3ccccc3[nH]2)cc1)C1CCCN(C2CCC2)C1 (stereo not given)", "L-lactate dehydrogenase (Plasmodium falciparum (isolate CDC / Honduras)) (UniProt Q27743)", "%", 4),
    ("O=S(=O)(NC1CCN(c2ccnc3cc(Cl)ccc23)C1)c1cccc(F)c1 (stereo not given)", "L-lactate dehydrogenase (Plasmodium falciparum (isolate CDC / Honduras)) (UniProt Q27743)", "%", 5),
    ("NC1CCN(Cc2ccc(-c3cccc(-c4nc5ccccc5[nH]4)c3)cc2)C1 (stereo not given)", "L-lactate dehydrogenase (Plasmodium falciparum (isolate CDC / Honduras)) (UniProt Q27743)", "%", 5),
    ("Fc1cccc(Nc2nc(NCc3ccc(OCc4ccccc4)cc3)nc(Nc3cccc(F)c3)n2)c1", "L-lactate dehydrogenase (Plasmodium falciparum (isolate CDC / Honduras)) (UniProt Q27743)", "%", 1),
    ("CCCCN(CCCC)CCNC(=O)c1cc(OC(F)(F)F)ccc1O", "L-lactate dehydrogenase (Plasmodium falciparum (isolate CDC / Honduras)) (UniProt Q27743)", "%", -8),
    ("O=C(Nc1ccc(F)c(F)c1)c1ccc(CN2CCCN(Cc3cccc(F)c3)CC2)cc1", "L-lactate dehydrogenase (Plasmodium falciparum (isolate CDC / Honduras)) (UniProt Q27743)", "%", -6),
]

Q: Sample Cc1cc(Cl)ccc1NC(=O)NCCCCCN1CCC(c2c[nH]c3ccccc23)CC1 — what was its inhibition?
A: 0

###

- experimental_system: L-lactate dehydrogenase (Plasmodium falciparum (isolate CDC / Honduras))
- assay_summary: PfLDH activity inhibition – cell lysate, 3D7 strain, counter-screen for P. falciparum growth inhibition project (AID 2304);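 also: 0% = vehicle and 100% = reference inhibitor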
- condition: P. falciparum 3D7 crude extract, LDH APAD/NBT absorbance; at 2 µM; stronger effect = higher value
readout_name: inhibition (%)
Provide the reading as a plain figure in %.

Q: Given the molecule C=Cc1ccc(-c2c(C)[nH]c(C)c(Br)c2=O)cc1 , what is its reported inhibition?
A: -3

Q: Requested read-out: inhibition. Entry: C[C@@H](N)C#Cc1cc2c(Nc3ccc(OCc4cccc(F)c4)c(Cl)c3)ncnc2s1
A: -5

Q: Entry under review: N#Cc1cccc(-c2cnc(N)c(-c3nc4ccc(S(N)(=O)=O)cc4[nH]3)c2)c1 . Reported inhibition?
A: -5

Q: Which inhibition is reported for this molecule? COc1ccccc1C(=O)C1CCCN(C(=O)c2ccccc2C(F)(F)F)C1 (centres undefined)
A: -4

Q: Fill in the blank: the reported inhibition of Cc1cc(-c2ccc(S(=O)(=O)Nc3cc4c(cc3OC(C)C)CCN(C)CC4)cc2)ccc1Cl is ____.
A: -1

Q: Data request, read-out inhibition, for Cc1cc(-c2ccc(NC(=O)Nc3ccc4nccc(N5CCN(C)CC5)c4c3)cc2C)cc(C)n1
A: 4

Q: Which inhibition is reported for this molecule? O=C(Cc1cnc[nH]1)Nc1ccc(-c2ccc(-c3nc4ccc(F)cc4[nH]3)cc2)cc1
A: 0

Q: Fill blank: measured inhibition of the molecule COc1cccc(CNC(=O)c2ccnc(-c3cccc(CN(C)C4CCN(C)CC4)c3)c2)c1 is ____.
A: -1

Q: // query inhibition value for entry Cc1ccccc1C1CCN(C2CCC(NC(=O)c3ccc(-c4ccccc4F)o3)CC2)CC1 (centres undefined)
A: 1

###

- assay_summary: human hepatoma cell viability loss – ATP luminescence, cytotoxicity control for P. falciparum antimalarial project, primary screen (AID 2303);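 also: 0% = DMSO wells and 100% = digitonin-killed cells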
- condition: HepG2 viability, 24-48 h, at 10 µM
Active and inactive are the calls of the source.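 The calls were made as follows: active = inhibition above 50%; inactive = the rest.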
# valid calls are 1 (yes) = active, 0 (no) = inactive; nothing else

Example cases with answers are listed next.
# compound, qualitative_label
measured = [
    ("COc1cccc(CN2CCCC(OC(c3ccccc3)c3ccccc3)C2)c1O (stereo not given)", "0 (no)"),
    ("CC(C)c1cc(Oc2c(I)cc(CCCc3ncc[nH]3)cc2I)ccc1O", "0 (no)"),
    ("C[C@H](NCCC1CCC(NC(=O)N[C@H](C)C(O)(c2ccccc2)c2ccccc2)CC1)c1cccc2ccccc12 (stereo not given in full)", "0 (no)"),
]

Q: Status in this test for CCCCN(CCCC)CCCCNc1c2ccc(Cl)cc2nc2ccc(OC)cc12 ?
A: 1 (yes)

Q: # fetch the recorded call for Cc1cc(N[C@@H](Cc2ccccc2)C(=O)Nc2ccccc2)nc(NCCN2CCCC2)n1 here
A: 0 (no)

Q: // param item: N#Cc1ccc(-c2ccc(C(=O)NCCCCN3CCC(c4ccc5c(c4OCC(N)=O)CCCC5)CC3)cc2)cc1 ; yields the recorded call
A: 0 (no)

Q: What call does the record list for Cn1nc(-c2cccc(CNC3CCc4ccccc43)c2)c2cnc(NCCCN3CCCC3)nc21 (stereo not given) ?
A: 0 (no)

Q: Test call, this compound: CCOC(=O)c1cccc(N/C(N)=N/c2nc(C)cc(NCCc3ccccc3)n2)c1
A: 0 (no)

Q: What outcome does the record of this test show for COc1ccc2nccc([C@H](O)CN3CCC(NCc4ccc5c(c4C)OCCO5)CC3)c2n1 ?
A: 0 (no)

Q: Just curious, what result did CCC1(C)N=C(N)N=C(N)N1c1ccc(Cl)cc1 (stereo not given) get here?
A: 0 (no)

###

// inhibition lookup, one value per entry
- experimental_system: L-lactate dehydrogenase (Plasmodium falciparum (isolate CDC / Honduras))
- assay_summary: PfLDH activity inhibition – cell lysate, 3D7 strain, counter-screen for P. falciparum growth inhibition project (AID 2304);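 also: 0% = vehicle and 100% = reference inhibitor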
- condition: P. falciparum 3D7 crude extract, LDH APAD/NBT absorbance; at 2 µM; stronger effect = higher value
Calls of active or inactive are those of the source. The rule behind the calls is not given here.

Take a look at these entries with their results.
# molecule, readout_name, reported_result
data = [
    ("Cc1[nH]c(C)c(-c2ccc(-c3cccc(OC(F)(F)F)c3)nc2)c(=O)c1Cl", "inhibition", "-2% (inactive)"),
    ("CC(=O)NC(c1cccs1)c1cc(Cl)c2cccnc2c1O (stereo not given)", "inhibition", "-2% (inactive)"),
    ("Cn1cncc1C(=O)Nc1cccc(-c2cccc(-c3nc4ccc(C(F)(F)F)cc4[nH]3)c2)c1", "inhibition", "0% (inactive)"),
    ("O=C1OC2(CN1CC1CCN(Cc3ccc(O)c(Cl)c3)CC1)c1ccccc1-c1ccccc12", "inhibition", "0% (inactive)"),
    ("COc1ccc(CNCc2cccc(-c3ccc(-c4nc5c(C)cccc5[nH]4)cc3)c2)cc1", "inhibition", "7% (inactive)"),
]

Q: Which inhibition value belongs to CCCC[C@H](NC(=O)OC(C)(C)C)C(=O)Nc1ccc(Cc2ccc(NC(=O)[C@H](CCCC)NC(=O)OC(C)(C)C)cc2)cc1 ?
A: 3% (inactive)

Q: # get_value(readout='inhibition', item= CC(=O)c1sc(Cc2nc3ccccc3s2)nc1C )
A: 1% (inactive)

Q: Consider the molecule CCc1cn2c3c(cc(C(=O)N[C@@H](Cc4ccccc4)[C@H](O)CNCc4ccc(C)cc4)cc13)N(C)S(=O)(=O)CC2 and give its measured inhibition.
A: 5% (inactive)

Q: Look at this molecule and give its reported inhibition. NC(=NCc1ccccc1)Nc1cccc(Cc2ccccc2)n1
A: 0% (inactive)

Q: Quick one: inhibition for COc1cccc(C(=O)Nc2sc3c(c2C(N)=O)CCCC3)c1OC ?
A: -2% (inactive)

###

- assay_summary: antimalarial activity against Dd2 strain (AID 2302);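 also: 0% = DMSO untreated growth and 100% = chloroquine plus artemisinin killed control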
- condition: P. falciparum Dd2 in RBCs, LDH growth readout, 72 h; at 2 µM; stronger effect = higher value
readout_name: growth inhibition (%)
Write the number in % without appending the unit.

Q: Quick one: growth inhibition of Cc1cc(NC(=O)c2ccc(S(=O)(=O)N(Cc3ccccc3)C(C)C)cc2)no1 ?
A: 67

Q: Requested read-out: growth inhibition. Entry: NC(=NCc1ccccc1)Nc1cccc(Cc2ccccc2)n1
A: 52

Q: Requested read-out: growth inhibition. Entry: c1ccc(CN2CCc3cc4nccc(N5CCNCC5)c4cc32)cc1
A: 99

Q: I'd like to know its growth inhibition. The molecule in question is CC(C)n1ncc2c3c(N)nc(N)nc3ccc21
A: 6

Q: What value of growth inhibition has been reported for the following molecule? Cc1cccc2[nH]c(-c3cccc(-c4cccc(NC(=O)CNC(=O)c5ccc(O)cc5)c4)c3)nc12
A: 49

The reported measurements were obtained from PubChem BioAssay.
